# Target: SCD5 (Homo sapiens)
# Construct: host or cells: S. cerevisiae ole1Δ strain (W303 pdr1Δ pdr3Δ background), plasmid pRS316 with TDH3 promoter and CYC1 terminator
# Sequence (Q86SK9 whole entry): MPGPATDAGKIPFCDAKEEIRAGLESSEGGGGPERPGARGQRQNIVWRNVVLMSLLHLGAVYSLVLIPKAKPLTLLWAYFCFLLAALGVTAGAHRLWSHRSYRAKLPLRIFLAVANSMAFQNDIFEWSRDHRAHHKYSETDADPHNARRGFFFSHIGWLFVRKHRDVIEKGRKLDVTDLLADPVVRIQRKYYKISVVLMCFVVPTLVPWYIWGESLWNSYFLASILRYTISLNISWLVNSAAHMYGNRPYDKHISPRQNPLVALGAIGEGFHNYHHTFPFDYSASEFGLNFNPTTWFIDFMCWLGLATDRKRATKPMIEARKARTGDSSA
# Assay Method Text: Growth inhibition of humanized yeast strain expressing SCD5 as sole desaturase
# Assay type: cell-based
# Condition Summary: humanized yeast strain expressing SCD5
Please note: yes applies when SCD5 % Max Inhibition is 80% or greater, and no applies otherwise.

Here's what some known entries look like.
{"Compound": "Cn1c(=O)n(C)c2cc(-c3noc(C4CCN(C(=O)CNC(=O)c5ccccc5)CC4)n3)ccc21 [Compound 122]", "Target": "SCD5 (Homo sapiens)", "Label Value": "yes"}
{"Compound": "O=C(c1ccccc1)N1CCC(c2nc(Cl)no2)CC1 [Compound 351]", "Target": "SCD5 (Homo sapiens)", "Label Value": "no"}
{"Compound": "CCN(Cc1nc(-c2ccc(OC)c(OC)c2)no1)C(=O)Cc1cccc2ccccc12 [Compound 157]", "Target": "SCD5 (Homo sapiens)", "Label Value": "no"}
{"Compound": "COc1ccc(-c2noc(C3CCN(C(=O)COCc4ccccc4)CC3)n2)cc1OC [Compound 31]", "Target": "SCD5 (Homo sapiens)", "Label Value": "no"}
{"Compound": "Cc1nn(C)c2cc(-c3noc(C4CCN(C(=O)CNC(=O)c5ccccn5)CC4)n3)ccc12 [Compound 153]", "Target": "SCD5 (Homo sapiens)", "Label Value": "yes"}

Problem: Check the entry COc1cc(-c2noc(C3CCN(C(=O)CNC(=O)c4ccccc4)CC3)n2)ccc1OC(F)(F)F [Compound 253] : does SCD5 % Max Inhibition equal or exceed 80%?
Result: no

Problem: Proceed to O=C(C1CC(=O)N(c2cccc(Cl)c2)C1)N1CCC(c2nc(N3CC4(COC4)C3)no2)CC1 (centres unmarked) [Compound 339]
Result: no

====

# Target: SCD1 (Homo sapiens, UniProt O00767)
# Construct: host or cells: S. cerevisiae ole1Δ strain (W303 pdr1Δ pdr3Δ background), plasmid pRS316 with TDH3 promoter and CYC1 terminator
# Sequence (O00767 1-359): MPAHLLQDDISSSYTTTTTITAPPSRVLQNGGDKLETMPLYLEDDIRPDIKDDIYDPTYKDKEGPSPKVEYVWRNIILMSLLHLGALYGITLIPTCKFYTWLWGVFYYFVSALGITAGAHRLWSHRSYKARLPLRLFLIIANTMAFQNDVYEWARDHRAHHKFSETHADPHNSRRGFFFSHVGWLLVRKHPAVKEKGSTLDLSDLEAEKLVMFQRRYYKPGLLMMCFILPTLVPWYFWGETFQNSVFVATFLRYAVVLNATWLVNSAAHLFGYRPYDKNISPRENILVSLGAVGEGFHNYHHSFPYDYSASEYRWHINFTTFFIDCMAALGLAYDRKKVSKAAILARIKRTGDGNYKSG
# Assay Method Text: Growth inhibition of humanized yeast strain expressing SCD1 as sole desaturase
# Format: cell-based
# Condition Summary: humanized yeast strain expressing SCD1
Task for the reader: assign each of the following molecules its reported SCD1 % Max Inhibition.
Param answer (str): number followed by unit.

// solved cases for SCD1 % Max Inhibition follow
{"Molecule": "Cc1ncc2ccc(-c3noc(C4CCN(C(=O)C5CC(=O)N(c6ccccc6)C5)CC4)n3)cn12 (stereo not drawn)", "Value Observed": "83.82%"}
{"Molecule": "COc1ccc(-c2noc(C3CCN(C(=O)CNC(=O)c4ccccn4)CC3)n2)cc1OC", "Value Observed": "78.31%"}
{"Molecule": "Cc1nn(C)c2cc(-c3noc(N4C[C@H]5CN(C(=O)CNC(=O)c6ccccc6)C[C@H]5C4)n3)ccc12", "Value Observed": "86.42%"}
{"Molecule": "CCOc1ccc(-c2noc(C3CCN(C(=O)[C@H]4CC[C@H](c5ccccc5)N4)CC3)n2)cc1OC", "Value Observed": "86.22%"}
{"Molecule": "CCOC(=O)N1CCC(c2nc(-c3ccc4cnn(C(C)C)c4c3)no2)CC1", "Value Observed": "67.22%"}
{"Molecule": "CCOc1ncc(-c2noc(C3CCN(C(=O)CN4Cc5ccccc5C4=O)CC3)n2)cc1OC", "Value Observed": "96.48%"}

Below is a list of molecules. For each, state its recorded SCD1 % Max Inhibition.
1. Cc1nn(C)c2cc(-c3noc(C4CCN(S(=O)(=O)C(C)C)CC4)n3)ccc12
2. CCOc1ccc(-c2noc(C3CCN(C(=O)N4CCCCC4)CC3)n2)cc1OC
3. O=C(C1CC(=O)N(c2cccc(Cl)c2)C1)N1CCC(c2nc(N3CCC4(CC3)COC4)no2)CC1 (stereo not drawn)
4. Cc1cccc(-c2nc(C3CCN(C(=O)C4CC(=O)N(c5ccc(C)c(C)c5)C4)CC3)no2)c1 (stereo not drawn)
5. CC(C)(CO)n1cc2ccc(-c3noc(C4CCN(C(=O)CNC(=O)c5ccccc5)CC4)n3)cc2n1
6. Cc1nn(C)c2cc(-c3noc(C4CCN(C(=O)CNC(=O)c5cc(Cl)ccc5C(F)(F)F)CC4)n3)ccc12
7. COc1ccc(-c2noc(N3CCC(C(=O)NCCc4ccccc4)CC3)n2)cc1OC
8. Cc1nn(C)c2cc(-c3noc(C4CCN(C(=O)C5CN(C(=O)c6ccccc6)C5)CC4)n3)ccc12

Result:
43.86%
79.96%
73.7%
76.83%
74.09%
86.6%
61.29%
77.23%

Problem: Record lookup: for SCD1 (Homo sapiens, UniProt O00767), what SCD1 % Max Inhibition belongs to `COc1ccc(-c2noc(C3CCN(C(=O)[C@H]4CC(=O)N(c5ccc(C)c(C)c5)C4)CC3)n2)cc1` ?
Result: 32.39%
